- protocol: Inhibition of trypsin
measuredMetric: Ki (µM)
Field format: number, assumed µM, no unit text.

Data point: CCOC(=O)CCC(=O)N(Cc1ccccc1)c1ccc2c(c1)OC(Cc1ccc(C(=N)N)cc1)C(=O)N2C (centres undefined) ; Ki = 3.1

Data point: CN1C(=O)C(Cc2ccc(C(=N)N)cc2)Oc2cc(NC(=O)C(Cc3ccccc3)C(=O)O)ccc21 (centres undefined) ; Ki = 5.13

Data point: COC(=O)C(Cc1ccccc1)C(=O)Nc1ccc2c(c1)OC(Cc1ccc(C(=N)N)cc1)C(=O)N2C (centres undefined) ; Ki = 11.2

Data point: CN1C(=O)C(Cc2ccc(C(=N)N)cc2)Oc2cc(N(Cc3ccccc3)C(=O)C(=O)O)ccc21 (centres undefined) ; Ki = 10.1

* * *

I'd appreciate it if you could supply Ki values for the items below.
Field format: number, assumed nM, no unit text.

Known value: Prothrombin (Homo sapiens, UniProt P00734) Ki of the compound CN1C(=O)C(Cc2ccc(C(=N)N)cc2)Oc2cc(NC(=O)C(Cc3ccccc3)C(=O)O)ccc21 (configuration not stated) equals 2940

Known value: Prothrombin (Homo sapiens, UniProt P00734) Ki of the compound CN1C(=O)C(Cc2ccc(C(=N)N)cc2)Oc2cc(N(Cc3ccccc3)C(=O)CC(=O)O)ccc21 (configuration not stated) equals 2.6

* * *

- protocol: Selectivity for factor 10a over thrombin
I'd appreciate it if you could supply Ratio Ki values for the items below.
Lab note: record just the number, no unit beside it.

Data point: COC(=O)C(Cc1ccccc1)C(=O)Nc1ccc2c(c1)OC(Cc1ccc(C(=N)N)cc1)C(=O)N2C (stereo not drawn) ; Ratio Ki = 22

Data point: CN1C(=O)C(Cc2ccc(C(=N)N)cc2)Oc2cc(NC(=O)C(Cc3ccccc3)C(=O)O)ccc21 (stereo not drawn) ; Ratio Ki = 11

Data point: CCOC(=O)C(=O)N(Cc1ccccc1)c1ccc2c(c1)OC(Cc1ccc(C(=N)N)cc1)C(=O)N2C (stereo not drawn) ; Ratio Ki = 537

Data point: COC(=O)CC(=O)N(Cc1ccccc1)c1ccc2c(c1)OC(Cc1ccc(C(=N)N)cc1)C(=O)N2C (stereo not drawn) ; Ratio Ki = 1690

Data point: CN1C(=O)C(Cc2ccc(C(=N)N)cc2)Oc2cc(N(Cc3ccccc3)C(=O)C(=O)O)ccc21 (stereo not drawn) ; Ratio Ki = 835

Data point: CN1C(=O)C(Cc2ccc(C(=N)N)cc2)Oc2cc(N(Cc3ccccc3)C(=O)CC(=O)O)ccc21 (stereo not drawn) ; Ratio Ki = 52500

Data point: CN1C(=O)C(Cc2ccc(C(=N)N)cc2)Oc2cc(N(Cc3ccccc3)C(=O)CCC(=O)O)ccc21 (stereo not drawn) ; Ratio Ki = 2430

Data point: CCOC(=O)CCC(=O)N(Cc1ccccc1)c1ccc2c(c1)OC(Cc1ccc(C(=N)N)cc1)C(=O)N2C (stereo not drawn) ; Ratio Ki = 181

* * *

- protocol: Inhibition of trypsin
I'd appreciate it if you could supply pKi values for the items below.
Worth noting: pKi values are minus log10 of concentrations stated in mol/L.

Data point: COC(=O)CC(=O)N(Cc1ccccc1)c1ccc2c(c1)OC(Cc1ccc(C(=N)N)cc1)C(=O)N2C (centres undefined) ; pKi = 5.42

Data point: CCOC(=O)C(=O)N(Cc1ccccc1)c1ccc2c(c1)OC(Cc1ccc(C(=N)N)cc1)C(=O)N2C (centres undefined) ; pKi = 5.37

Data point: CN1C(=O)C(Cc2ccc(C(=N)N)cc2)Oc2cc(N(Cc3ccccc3)C(=O)CC(=O)O)ccc21 (centres undefined) ; pKi = 3.53

Data point: CN1C(=O)C(Cc2ccc(C(=N)N)cc2)Oc2cc(N(Cc3ccccc3)C(=O)CCC(=O)O)ccc21 (centres undefined) ; pKi = 5.13
